Documented melting point across a set of molecules

Item under review: `CC(C)(C)NS(=O)(=O)c1c(CCl)nc2ccccn12` . Reported melting point?
180 to 182 °C

# get_value(readout='melting point', item= `Cc1cc(Cl)cc(C(=O)CC(=O)C2CCCCC2)c1O` )
76 to 77 °C

Name the recorded melting point for `C=CC(=O)NC(C)(C)c1ccc(OCc2ccccc2)cc1` .
116 to 117 °C

Could you share which melting point value was measured for `O=C1C(=O)c2ccccc2C2=C1SCC1(CCOCC1)O2` ?
195 to 197 °C

Form field: reported melting point of `CN1C(=S)N(c2ccc(C#N)c(C(F)(F)F)c2)C(=O)C1(CO)CO`
169 to 170 °C

Fill blank: measured melting point of the molecule `Cn1cc(-c2cccc(C(F)(F)F)c2)c(=O)c(-c2ccccc2Br)c1` is ____.
197 to 199 °C

# query: melting point of entry `CC(C)n1nc(-c2cc(C(=O)NCCO)cnc2-c2ccccc2)ccc1=O`
165 to 167 °C

Query (molecule): Cc1cccnc1C(O)c1ccc(N)cc1 (configuration not stated) ; field requested: melting point
153 to 154 °C

====

Entries and their melting point values follow.

Answered cases to consult:
>  <compound>
N#Cc1cccc(/C=C/C2=CCN(Cc3c[nH]c4ncccc34)CC2)c1

>  <melting point>
213 to 215 °C

$$$$
>  <compound>
O=c1oc(-c2ccc(-n3ccnc3)c(C(F)(F)F)c2)nn1Cc1cc(Cl)ccc1O

>  <melting point>
178 to 180 °C

$$$$
>  <compound>
CCCc1[nH]cnc1C(=O)OCC

>  <melting point>
175 to 179 °C

$$$$
>  <compound>
Cn1cc2c([C@@H]3C[C@H]3CNC(=O)c3ccc(Br)cc3)cccc2n1

>  <melting point>
140 to 142 °C

$$$$

Looking for the measured melting point of `Nc1ccc(C2=NNC(=O)Cc3cc4c(cc32)OCO4)c(Cl)c1` , can you help?
238 to 240 °C

Give the measured melting point of `Cc1cc(-c2cc(C(F)(F)F)n3ncc(C(=O)Nc4cc(S(N)(=O)=O)sc4Cl)c3n2)ccc1C(F)(F)F` .
283 °C

Can you share its melting point? I mean this compound: CN(C)CCOc1ccc2c(c1)C(c1ccccc1)CC(=O)N2 (stereo unspecified)
133 to 135 °C

Param item = `COc1ccc(/C=C(\C)[N+](=O)[O-])cc1OCc1ccccc1` ; retrieve measured melting point.
102 to 104 °C

# input compound: `Cn1c(=O)c2conc2n(C2CCCCC2)c1=O` ; wanted: its melting point
194 to 197 °C

Which melting point reading was recorded for the compound `COP(=O)(OC)C(=O)Cc1ccccc1` ?
117 to 122 °C

Return reported melting point; argument: CCCCCC(CC(=O)Nc1cc(C(N)=O)ccc1C(C)(C)C)c1ccc(C(O)CCC)cc1OC (stereo unspecified)
153 to 155 °C

Query (compound): `O=C(c1ccccc1I)N1CCOCC1` ; field requested: melting point
86 to 87 °C

Which melting point is listed for `CC(=O)N1CCN(c2ccc(F)cc2O)CC1` ?
183 to 185 °C

====

measured.property: melting point

>  <compound>
CO[C@H]1O[C@@H](C)[C@H]2[C@@H]1C[C@H]1CCCC[C@@H]1[C@H]2CS(=O)(=O)c1ccccc1

>  <reported>
136 to 137 °C

$$$$

Entry under review: OC1CSC(Oc2ccc(-c3cccnc3Cl)nc2)C(O)C1O (centres undefined) . Reported melting point?
203 °C

# get_value(readout='melting point', item= `Nc1c(Cl)cccc1SSc1cccc(Cl)c1N` )
87 to 88 °C

Quick one: melting point for `Cc1cc(-c2cc(C(F)F)n3ncc(C(=O)Nc4cccc(S(C)(=O)=O)c4)c3n2)ccc1C(F)(F)F` ?
261 °C

If you can, please state the reported melting point value of `O=c1c(Br)c(CCC2CC2)nc2ccccn12` .
162 to 164 °C
